- system: T1, IL-36R naturally expressed on OVCAR8 cells and on normal human epidermal keratinocytes (NHK cells) (human, UniProt Q9HB29 20-575)
- T1 sequence (looked up): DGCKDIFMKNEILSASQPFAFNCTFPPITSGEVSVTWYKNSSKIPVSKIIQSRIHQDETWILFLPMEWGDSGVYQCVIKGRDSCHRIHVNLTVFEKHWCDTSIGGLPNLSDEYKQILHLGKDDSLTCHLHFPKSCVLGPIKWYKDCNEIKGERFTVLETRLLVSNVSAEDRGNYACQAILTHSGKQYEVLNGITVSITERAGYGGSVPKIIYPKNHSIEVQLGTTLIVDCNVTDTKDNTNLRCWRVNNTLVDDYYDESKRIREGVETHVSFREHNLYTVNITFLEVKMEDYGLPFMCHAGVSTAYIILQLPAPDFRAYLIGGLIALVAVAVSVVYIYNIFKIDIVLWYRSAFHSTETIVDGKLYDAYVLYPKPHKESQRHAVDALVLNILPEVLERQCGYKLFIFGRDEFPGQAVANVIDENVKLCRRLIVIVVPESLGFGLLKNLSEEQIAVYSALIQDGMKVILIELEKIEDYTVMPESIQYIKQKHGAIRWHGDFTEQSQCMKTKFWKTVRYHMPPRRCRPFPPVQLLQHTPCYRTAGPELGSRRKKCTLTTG
- protocol: cell-based or functional assay

{"binder": "hz84C4-1.3 (antibody, human IgG4 S228P, kappa, V domains shown, Humanized, human IgG4 / kappa) VH: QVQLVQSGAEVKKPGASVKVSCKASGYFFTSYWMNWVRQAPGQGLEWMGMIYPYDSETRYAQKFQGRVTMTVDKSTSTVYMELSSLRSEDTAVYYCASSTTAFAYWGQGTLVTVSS VL: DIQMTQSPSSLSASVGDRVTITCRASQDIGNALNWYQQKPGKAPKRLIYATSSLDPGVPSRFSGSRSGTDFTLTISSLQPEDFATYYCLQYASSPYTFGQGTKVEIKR", "IC50 (M); hIL36αβγ; IL-8 production": "5.33e-12"}

Origin of values: patent US20240270857A1
